These measurements were taken from the supplement of paper PMC10567573.

B1: CCND1 (parent)
chain: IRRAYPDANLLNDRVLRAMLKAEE

- Variants of: B1
- Measurement protocol: protein stability index of a GFP-peptide fusion (GPS, HEK-293T) (PSI 1-6); higher = more stable;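 note: lentivirally expressed fusions sorted by FACS into six bins by GFP to DsRed ratio, PSI derived from sequencing read proportions per bin multiplied by bin number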
- Condition label: c terminus: a fixed tail appended
# reported protein stability index; entries follow
Please respond with just the number, no unit label.

>>> recorded_value("IRRAYPDARLLNDRVLRAMLKAEE [N9R]")
2.06
>>> recorded_value("IRRAYPDANLLNDRVLRAMLKAEL [E24L]")
1.8
>>> recorded_value("IRRAYPDANLLNDRVLRAMLKAAE [E23A]")
1.87
>>> recorded_value("IRTAYPDANLLNDRVLRAMLKAEE [R3T]")
3.17
>>> recorded_value("KRRAYPDANLLNDRVLRAMLKAEE [I1K]")
2.99
>>> recorded_value("IRRAYPEANLLNDRVLRAMLKAEE [D7E]")
2.06
>>> recorded_value("IRRAYPDANLLNDRVLRIMLKAEE [A18I]")
2.36
>>> recorded_value("IRRAYPDANLLNDRVLRAMLKARE [E23R]")
2.37
>>> recorded_value("IRRAYSDANLLNDRVLRAMLKAEE [P6S]")
3.19
>>> recorded_value("IRRAYPDANPLNDRVLRAMLKAEE [L10P]")
2.63

Entry IRRAYPDANLLADRVLRAMLKAEE [N12A] ; protein stability index = 3.21
